- Test system: MCF-7 breast adenocarcinoma cells
- method-notes: MTT cytotoxicity (chemosensitivity) assay, 96 h
- Format: cell-based, human
- reported-conditions: Homo sapiens, MCF7; 96 h incubation, MTT, 37°C, 5% CO2; read-out: IC50 values (μM) ± SD, MCF-7
property-label: IC50

Enquiry: # input compound: CC(=O)Nc1ccccc1NC(=O)c1cccc(C(=O)Nc2ccccc2NC(C)=O)n1 ; wanted: its IC50
Return: > 100 µM

Enquiry: # input compound: Nc1ccccc1NC(=O)c1cccc(C(=O)Nc2ccccc2N)n1 ; wanted: its IC50
Return: > 100 µM

Enquiry: # input compound: CC(C)(C)OC(=O)Nc1ccccc1NC(=O)c1cccc(C(=O)Nc2ccccc2NC(=O)OC(C)(C)C)n1 ; wanted: its IC50
Return: 84 µM
